- assayed system: E1E2 of HCV isolate AMS.4d.20875969 (genotype 4d) (Hepatitis C virus genotype 4d)
- test protocol: cell-based or functional assay
endpoint name: IC50, HCVpp neutralization

binder	IC50, HCVpp neutralization
AT13-021 (antibody, V domains shown) VH: QVQLVQSGAEVKKPGSSVKVSCKASGGTFNTHAFSWVRQAPGEGLEWMGGISPMSGTPNYAQKFQGRLTITADESTSTGYMELRSLTSEDTAVYYCARELIGYCTGGNCYSFGDFWGQGTLITVSS VL: EIVMTQSPATLSVSPGERATLSCRASQSVSSHLAWYQHKPGQAPRLLISGASTRAVGVPARFSGSGSGTEFTLTISSLQSEDFAVYYCHQYNTWPRGFGQGTKVDFKR	0.94 µg/mL
AT12-007 (antibody, V domains shown) VH: QVQLEQSGAEVKKPGASVKVSCKVSGYTLTELSMHWVRQAPGKGLEWMGSFDPADGERLYAQKFQGRVIMSEDTSTDTAYMELSSLRSEDAAVYYCATAPRMTMFGVIMALDSWGQGTLVTVSS VL: DIQMTQSPSTLSASLGDRVTITCRASQNINKYLAWYQQKPGKAPKLLIYKASNLQSGVPSRFSGSGSGTDFILTISSLQPDDFATYYCQQYTTYSAWTFGQGTNVDIKR	> 50 µg/mL
AT12-011 (antibody, V domains shown) VH: QVQLVQSGAEVKKPGSSVKVSCKASGGTFSGYGITWVRQAPGQGLEWMGTIIPVSATETYAQRLQGRVTISADEHSTTSYMEVSSLKSEDTALYYCARHDYFWGTPLDIWGQGTMVIVSS VL: EIVLTQSPDFQSVTPKEKVTITCRASQSIGSNLHWYQQKPGQSPKLLIKYASQSFSGVPSRFSGSGSGTDFTLTINSLEAEDAATYFCHQSYNLPRTFGGGTKVEIKR	> 50 µg/mL

Name the recorded IC50, HCVpp neutralization for AT12-010 (antibody, V domains shown) VH: QLQLVQSGAEVKKPGSSVKVSCKASGGTFTSYAINWVRQVPGQGLEWMGEISPVFGTTHYAQKFQGRLKITADESADTAYMELSSLRSDDTAVYYCGRDRAPRLCSGGRCHSPPDHWGQGTLVTVSS VL: DIQMTQSPSSVSASVGDRVTITCRASQGFGNWLAWYQQKPGRAPKLLIFGASTLQNGVPSRFSGSASGTDFTLTITSLQPEDFATYYCLQTNTFPYTFGQGTKVEIKR .
> 50 µg/mL

Data credit: patent US20170313764A1
